// reported TGI per item
System: SW-620 colon
measurement_notes: NCI tumour cell line growth inhibition, 48 h
quantity_measured: TGI (µM)

>>> result_value("O=C(C[n+]1ccccc1)N=N/C(C(=O)Nc1c(Cl)c(O)c2ccccc2c1O)=C1/C(=O)Oc2cc(O)ccc2C1=O")
20.6
>>> result_value("C=C[C@H]1CCC/C=C/[C@@H]2C[C@H](O)C[C@H]2[C@H](O)/C=C/C(=O)O1")
0.0949
>>> result_value("O=C(CC12CC3CC(CC(C3)C1)C2)NCCOCCOCCOCCNC(=O)c1cc2c(o1)C(=O)c1ccccc1C2=O")
4.61
>>> result_value("CCCC(C)C[C@@H](C)CC(C)/C=C(\\C)c1oc(=O)c(C)c(O)c1C (some centres undefined) (tested in a mixture with another compound)")
35.1

====

System: SNB-75 CNS
measurement_notes: NCI tumour cell line growth inhibition, 48 h
// reported TGI per item
quantity_measured: TGI

>>> result_value("Cc1cc(N2CCN(c3ccnc4cc(Cl)ccc34)CC2)nc(NC2CCCCC2)n1")
"3.95 µM"
>>> result_value("c1cn2cc(-c3ccc4ncn(C5CCCCC5)c4c3)nc(-c3ccc4c(c3)ncn4C3CCCCC3)c2n1")
"3.07 µM"
>>> result_value("CN1CCCCCC(=N\\O)/C(=N/O)CCCCC1")
"> 100 µM"
>>> result_value("[O-][n+]1onc(-c2ccccc2)c1CN1CCOCC1")
"> 100 µM"
>>> result_value("CCOC(=O)[C@@H]1ON2O[C@H](OC3CCCC3(c3ccccc3)c3ccccc3)C[C@H]3OC(=O)[C@@H]1C32 (stereo not given in full)")
"> 100 µM"
>>> result_value("Fc1ccccc1-c1nn2c(C34CC5CC(CC(C5)C3)C4)nnc2s1")
"> 100 µM"
>>> result_value("C[C@]12CC[C@H](OCCC#N)CC1=CC[C@@H]1C2CC[C@]2(C)/C(=N/OCCC#N)CCC12 (stereo not given in full)")
"> 78.9 µM"
>>> result_value("COC(=O)c1c2c(c(C)[n+]([O-])c1C)C(=O)C=C(NCc1ccc(OC)cc1)C2=O")
"9.53 µM"
>>> result_value("O=c1c2cccnc2cc(-c2ccccc2)n1CCO")
"> 100 µM"
>>> result_value("CCOP(=O)(OCC)c1ccc(=O)[nH]c1-c1cccs1")
"> 100 µM"
>>> result_value("COC1OC(C)C(O)CC1OS(=O)(=O)c1ccc(C)cc1 (stereo not given)")
"> 100 µM"
>>> result_value("OC(C/C(=N\\N1CCCCC1)c1cccs1)(C(F)(F)F)C(F)(F)F")
"> 10 µM"
>>> result_value("Cc1ccc(C(=O)C(Cl)C(Cl)c2ccc(C)cc2)cc1 (stereo not given)")
"23 µM"
>>> result_value("Cc1ccc(S(=O)(=O)NC2C(=O)c3ccccc3C(=O)C2n2cnc3ccccc32)cc1 (stereo not given)")
"> 100 µM"
>>> result_value("C=C[C@H]1CCC/C=C/[C@@H]2C[C@H](O)C[C@H]2[C@H](O)/C=C/C(=O)O1")
"> 100 µM"
>>> result_value("COC(=O)C12CC3CC(C1)CC(C(=O)OC)(C3)C2")
"> 100 µM"
>>> result_value("O=c1[nH]c2c3ccccc3ccc2c2cc3c(cc12)OCO3")
"> 100 µM"
>>> result_value("C=CCN1C=CC(=O)[C@H](O[Si](C)(C)C(C)(C)C)[C@@H]1/C=C/c1ccccc1")
"22.7 µM"
>>> result_value("Nc1ccc2c3c(n(CCCCl)c(=O)c2c1)-c1cc2c(cc1C3=O)OCO2")
"> 100 µM"
>>> result_value("O=C([O][Hg][CH2]C1COCC([CH2][Hg][O]C(=O)c2ccccc2)O1)c1ccccc1 (stereo not given)")
"29.3 µM"
>>> result_value("CC1=C(C(=O)NCCc2ccccc2)CC(C(=O)NCCc2ccccc2)=C(C)N1")
"69.2 µM"
>>> result_value("COC(=O)c1ccc(N=NN(C)COc2ccc([N+](=O)[O-])cc2)cc1")
"> 100 µM"
>>> result_value("O=c1[nH]ccc2nc(N3CCC(O)CC3)nc(Nc3cccc(C(F)(F)F)c3)c12")
"82.1 µM"
>>> result_value("CC1=CC(=O)C(=O)C2=C1OC1(C2)C(C)CCC2C3(C)CCC(O)C(C)(C)C3CCC21C (stereo not given)")
"> 100 µM"
>>> result_value("CC1(C)CCCCCCC2OC2CCCCCC(C)(C)C1=O (stereo not given)")
"> 100 µM"
>>> result_value("NC1=NN(c2ccccc2)C2(O)c3ccncc3C3=NN(c4ccccc4)C(=O)C132 (stereo not given)")
"> 100 µM"
>>> result_value("N=C(N)c1csc([C@@H]2O[C@H](CO)[C@@H](O)[C@H]2O)n1")
"> 100 µM"
>>> result_value("CC(=O)OCC1OC(N2C(C)=C(C(C)=O)C(c3ccco3)C(C#N)=C2S)C(OC(C)=O)C(OC(C)=O)C1OC(C)=O (stereo not given)")
"> 100 µM"
>>> result_value("COc1ccc(NC(C)=O)cc1C1CCC(=O)N1 (stereo not given)")
"> 100 µM"
>>> result_value("COc1c2ccccc2c(OC)c2nc(C)ccc12")
"> 100 µM"
>>> result_value("NC(=O)C(c1ccccc1)N1OC2C(=O)N(c3cccc4ccccc34)C(=O)C2C1c1c2ccccc2c(Cl)c2ccccc12 (stereo not given)")
"20.4 µM"
>>> result_value("CCOC(=O)C1=C(Nc2ccc(Cl)cc2Cl)OC/C1=N\\NS(=O)(=O)c1ccc(C)cc1")
"> 100 µM"
>>> result_value("O=c1ccnc2c1ccc1[nH]cccc12")
"> 100 µM"
>>> result_value("C#C[C@]1(O)CCC2C3CCc4cc(Oc5nc(F)nc(-c6c7cc8ccccc8cc7c7n6CCS7)n5)ccc4C3CCC21C (stereo not given in full)")
"> 100 µM"
>>> result_value("Nc1cn(Cc2ccccc2)c2nc(/C=C3/C=CC=CC3=O)c(O)n12")
"> 100 µM"
>>> result_value("CC(=O)Nc1c(C)ccc2c1C(=O)c1ccccc1C2=O")
"> 100 µM"
>>> result_value("CCCn1c(SCC)c2cc3cc4ccccc4cc3cc2c1-c1nc(F)nc(F)n1")
"> 100 µM"
>>> result_value("CCCN1CN(C(C(=O)N[C@@H]2C(=O)N3C(C(=O)O)=C(C)CSC23)c2ccc(O)cc2)CSC1=S (stereo not given in full)")
"> 100 µM"
>>> result_value("Cc1cccc(C)c1NC(=O)CCc1nnc2s/c(=C\\c3ccc(Cl)cc3)c(=O)n12")
"> 100 µM"
>>> result_value("CCOC(=O)C(NC(=O)CC(C)C)(Nc1ccc(S(=O)(=O)Nc2nc(C)cc(C)n2)cc1)C(F)(F)F (stereo not given)")
"> 100 µM"
